# Tested on: Klebsiella pneumoniae (NBRC13277)
# measurement_protocol: Growth inhibition activity (MIC, agar) against aerobic bacteria
# Format: cell-based
# assay_setup: Klebsiella pneumoniae; strain NBRC13277; Mueller Hinton Agar, 37 degrees C. overnight; read-out: MIC (Minimum Inhibitory Concentration)
endpoint_label: MIC (µg/mL)
Supply the numeric figure in µg/mL, leaving out any unit text.

Given the entry CC1CCC(C(C)C)C(O)C1 (stereo not drawn) [l-menthol, menthol, reference compound] , report its measured MIC.
1600

Could you share which MIC value was measured for CC(O)CC(=O)OC1CC(C)CCC1C(C)C [(3S)-CA20, menthyl 3-hydroxybutanoate] ?
200

Give its MIC value. Item: CC1CCC(C(C)C)C(OC(=O)C=O)C1 (stereo not shown) [CA MGH, menthyl glyoxylate]
50

What MIC value was documented for this compound, CC1CCC(C(C)C)C(OCC(C)(O)CO)C1 (stereo not shown) ?
400

Values from patent US20140163099A1
